# Assay explanation: compound binding in COS7 lysate, probe aLAP1, primary screen, cell lysate, small-molecule microarray (AID 1124);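 note: lysate comes from COS7 cells expressing LAP1 and is applied at 0.3 µg/mL; score merges spot fluorescence near 667 nm with signal-to-noise over triplicate slides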
# Assay context: probe aLAP1, fluorescence, higher = more signal
Would you mind labelling by composite z-score? At or over 0.3 is true, under is false.

Exercise: Assess whether reported composite z-score for "O=C(CS)NCCCCCCNC(=O)[C@H]1C[C@H]2C(=O)N[C@@H](Cc3ccccc3)C(=O)N2[C@H]1c1cccc(OCCO)c1" sits at 0.3 or higher.
Key: true

Exercise: State whether the measured composite z-score reaches 0.3, counting equality as reaching it, for "C[C@@H]1ON(c2ccc(C(=O)OC(C)(C)C)cc2)[C@H](c2ccc(Br)cc2)[C@H]1C(=O)N1C(=O)OC[C@H]1Cc1ccccc1"
Key: false

Exercise: Please indicate if the recorded composite z-score for "CC(=O)NCCCC[C@@H]1NC(=O)[C@@H]2C[C@H](C(=O)O)[C@H](c3ccc(O)cc3)N2C1=O" meets or exceeds 0.3.
Key: false

Exercise: Hi, just wondering whether C[C@]12C(=O)N(CCCCCCO)[C@@H]3C(=O)N(c4ccc(Cl)cc4)CC=CC31O[C@@H]1/C=C\CCCOC(=O)C12 (some centres not stated) shows composite z-score of 0.3 or higher.
Key: false

Exercise: Has CC=CC(O)C1C=CC2C(=O)N(c3ccccc3)C(=O)C2N1Nc1ccc([N+](=O)[O-])cc1 (configuration not stated) a recorded composite z-score greater than or equal to 0.3?
Key: true

Exercise: Could you verify whether the entry "NCCCCCNC(=O)[C@@H]1C[C@@H]2C(=O)N[C@@H](CCCCN)C(=O)N2[C@@H]1c1cccc(OCCO)c1" shows composite z-score of no less than 0.3?
Key: true
